Data origin: the supplement of paper PMC6555819

# Tested on: THRa:RXRa (NR concentration 90 nM, RXRa partner concentration 90 nM)
# test_name: PBM binding z-score (relative to random genomic background probes); higher = stronger binding; sequences stand for … in GC…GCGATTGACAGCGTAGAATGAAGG
Entry flag: 1 if PBM binding z-score reaches 1; -1 if it does not.

Examples from the recorded data:
>>> df
                             residues  group
0  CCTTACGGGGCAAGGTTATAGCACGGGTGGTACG     -1
1  TCGACTAGGTTACCAATGGGGCATTCAGCTTTCT     -1
2  TCTCGGAGGACACGATGGTCAGAGCTTTCCAGAG      1
3  TGAATGAGGTTATAAGATCAGCGAACGTTGCAAA      1
4  AAATGTAGGTTAGCTGGGGTCATTCAGACTAGGC      1

-- ask Tell me whether PBM binding z-score is at least 1 here: TCGATTAGTTGAAGGGCAACCGACGAGTCCGTTT
-- reply -1

-- ask Tell me whether PBM binding z-score is at least 1 here: TTACCAAGGTGAGCTCAGGTCGTTGATCCAACTC
-- reply 1

-- ask Tell me whether PBM binding z-score is at least 1 here: GATACAAGGTCAAGGCCAGAGTACGCGTATTGAT
-- reply 1

* * *

# Test system: PXR homodimer (NR concentration 270 nM)
# test_name: PBM binding z-score (relative to random genomic background probes); higher = stronger binding; sequences stand for … in GC…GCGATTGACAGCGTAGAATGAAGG
endpoint_label: PBM binding z-score
Reply with just the number.

Recorded PBM binding z-score, per entry:
In [3]: df
Out[3]:
                             residues  measured_value
0  ACTATTAGCTGAGACGAGGGCAACCGATAGGTTG           0.536
1  CGAACTAGGTCATCCATGACAGTGAATACATTGA          0.0131
2  CCTACCGGGCCATCAGGTCATTGATATCAACGTT           0.864

Now take the following sequence into account.
-- ask GET /values?readout=PBM binding z-score&item= TCGAGTAGGTTAGGGGCCTTCAGAATGGCGTCGA
-- reply -0.829

* * *

# Tested on: PXR homodimer (NR concentration 270 nM)
# test_name: PBM binding z-score (relative to random genomic background probes); higher = stronger binding; sequences stand for … in GC…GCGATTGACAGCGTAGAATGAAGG
Reported PBM binding z-score by item:
Reply with just the number.

In [3]: df
Out[3]:
                             residues  measured_value
0  GCTGCTAGGCCAACTGATGGTCAGCTAAAGCTCG          -0.793

-- ask GET /values?readout=PBM binding z-score&item= GCATATAGGTAATACAAGGGGAAAGTCCGATTGT
-- reply 0.0351

-- ask GET /values?readout=PBM binding z-score&item= AGAACGACGGCACGCTGAGTTGATAGCAGAGTAG
-- reply 0.0818

-- ask GET /values?readout=PBM binding z-score&item= CTCGAAAGGTCGTTCTCAGGTGAGTATACCAAAC
-- reply 0.471

* * *

# System: PPARg:RXRa 90nM:30nM, anti-RXR (NR concentration 90 nM, RXRa partner concentration 30 nM)
# test_name: PBM binding z-score (relative to random genomic background probes); higher = stronger binding; sequences stand for … in GC…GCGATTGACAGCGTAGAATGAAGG
Using PBM binding z-score as the sorting value, the categories are 0 (below 0.8), 1 (0.8 to below 4), 2 (4 or more)

Examples from the recorded data:
                             residues  group
0  CAAACTAGGTCACAGAGGTCAAATTCCGTGCGTA      2
1  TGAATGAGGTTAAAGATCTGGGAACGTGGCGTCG      1
2  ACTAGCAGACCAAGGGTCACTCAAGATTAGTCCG      2
3  TGAATGAGGTTAAAAATCAGGGAACGTGGCGTCG      1
4  GATAGCAGGCCATTTGGGTCACTCAATGACGGGC      0
5  ATCTCTAGGTAAAAGTTCAGTGTATCCCGAGGAT      2
6  CCTTACGGGTCAAGGTTTTAGCACGGGTGGTACG      1
7  CCGACTGGGCCAGAAAGGTTACCATACCATCCGG      0

-- ask Using the reported PBM binding z-score, which band applies to CCTAGCAGGCCCGGGTCACTCAAGCATTTCGCTT ?
-- reply 0

-- ask Using the reported PBM binding z-score, which band applies to CCTTACGGGGCACTGACAGGTTATAGCATTTGGA ?
-- reply 0

-- ask Using the reported PBM binding z-score, which band applies to GCTATTAGTTGAAAGGGCAACCGTATGATTCTCG ?
-- reply 2

-- ask Using the reported PBM binding z-score, which band applies to AGAATGAGGTTATAAAGATCAGGGAATTGCGGTC ?
-- reply 1

* * *

Reported PBM binding z-score by item:
# Test system: RARb homodimer (NR concentration 270 nM)
# test_name: PBM binding z-score (relative to random genomic background probes); higher = stronger binding; sequences stand for … in GC…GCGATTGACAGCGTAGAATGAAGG

Recorded PBM binding z-score, per entry:
>>> df
                             residues                               target_desc  measured_value
0  TGTCAAAGTTCAAAGGAAACGTAAGTATCCACAC  RARb homodimer (NR concentration 270 nM)            3.37
1  CAGCCTAGGTCAGGGCCAGCATAGGAGGAACGTT  RARb homodimer (NR concentration 270 nM)            2.41
2  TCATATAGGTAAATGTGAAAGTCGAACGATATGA  RARb homodimer (NR concentration 270 nM)          -0.396
3  TCATATAGGTAAACGCTAGGTGAAAGTCCGATCT  RARb homodimer (NR concentration 270 nM)           0.416
4  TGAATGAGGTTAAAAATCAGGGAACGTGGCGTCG  RARb homodimer (NR concentration 270 nM)           0.129
5  ATACCAAGGTGATCTTGAGGTCGTTGATACTAAC  RARb homodimer (NR concentration 270 nM)             1.9

-- ask GET /values?readout=PBM binding z-score&item= TAGCCTAGGACATGGGCCAGTATACCACGCGAAC
-- reply -0.0727

-- ask GET /values?readout=PBM binding z-score&item= GCTGCTAGGTCCACTGATGGTCAGCTAAAGCTCG
-- reply 0.602

-- ask GET /values?readout=PBM binding z-score&item= ATCTATAGGTAAGACTCAGTTCAGTGAAGAACGC
-- reply 0.556

* * *

# Tested on: RXRa DBDmut IVT, anti-RXR (DBD mutation: RXRa K156A/R161A, NR concentration 90 nM)
# test_name: PBM binding z-score (relative to random genomic background probes); higher = stronger binding; sequences stand for … in GC…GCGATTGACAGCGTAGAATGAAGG
endpoint_label: PBM binding z-score
Reply with just the number.

Recorded PBM binding z-score, per entry:
>>> df
                             residues  measured_value
0  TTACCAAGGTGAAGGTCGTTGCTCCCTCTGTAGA           0.573
1  TCATGTAGGTAAAAGGTGAAAGTCGGTGTGGTAA            1.49
2  CGTCCAAGGTCATAGGAGGTCAGCGAAGACAGAT            4.05
3  AGAACGAGGGCACGCTGAGTTCATAGCAGAGTAG            3.17
4  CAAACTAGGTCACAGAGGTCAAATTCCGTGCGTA            3.34
5  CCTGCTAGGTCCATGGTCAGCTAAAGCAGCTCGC            1.19
6  CAAACTAGGTCAAGGTCATAGTCGGTTTGTGCCA            2.95
7  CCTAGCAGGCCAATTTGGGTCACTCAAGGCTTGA          0.0247

-- ask GET /values?readout=PBM binding z-score&item= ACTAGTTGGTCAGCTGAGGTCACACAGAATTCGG
-- reply 1.41

-- ask GET /values?readout=PBM binding z-score&item= TCTGCTAGGTCAGTTGGTCAGCCAACGAGCTGCC
-- reply 0.162

-- ask GET /values?readout=PBM binding z-score&item= CGTCCAAGGTCAAAGGTCGGTGAAGAGATGACGG
-- reply 3.85

-- ask GET /values?readout=PBM binding z-score&item= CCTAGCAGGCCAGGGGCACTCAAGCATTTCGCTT
-- reply -1.12
